Measured values drawn from patent US20190389955A1 for this set.

# ASSAY_SYSTEM: T1, human FLT3/FLK2 receptor protein (human, UniProt P36888 27-993)
# T1 construct: whole, on cells; Cell-surface target in the flow cytometry experiments (REH cells and SP2/0-Hu-FLT3 cells); also called CD135; Hu-FLT3
# T1 sequence (looked up): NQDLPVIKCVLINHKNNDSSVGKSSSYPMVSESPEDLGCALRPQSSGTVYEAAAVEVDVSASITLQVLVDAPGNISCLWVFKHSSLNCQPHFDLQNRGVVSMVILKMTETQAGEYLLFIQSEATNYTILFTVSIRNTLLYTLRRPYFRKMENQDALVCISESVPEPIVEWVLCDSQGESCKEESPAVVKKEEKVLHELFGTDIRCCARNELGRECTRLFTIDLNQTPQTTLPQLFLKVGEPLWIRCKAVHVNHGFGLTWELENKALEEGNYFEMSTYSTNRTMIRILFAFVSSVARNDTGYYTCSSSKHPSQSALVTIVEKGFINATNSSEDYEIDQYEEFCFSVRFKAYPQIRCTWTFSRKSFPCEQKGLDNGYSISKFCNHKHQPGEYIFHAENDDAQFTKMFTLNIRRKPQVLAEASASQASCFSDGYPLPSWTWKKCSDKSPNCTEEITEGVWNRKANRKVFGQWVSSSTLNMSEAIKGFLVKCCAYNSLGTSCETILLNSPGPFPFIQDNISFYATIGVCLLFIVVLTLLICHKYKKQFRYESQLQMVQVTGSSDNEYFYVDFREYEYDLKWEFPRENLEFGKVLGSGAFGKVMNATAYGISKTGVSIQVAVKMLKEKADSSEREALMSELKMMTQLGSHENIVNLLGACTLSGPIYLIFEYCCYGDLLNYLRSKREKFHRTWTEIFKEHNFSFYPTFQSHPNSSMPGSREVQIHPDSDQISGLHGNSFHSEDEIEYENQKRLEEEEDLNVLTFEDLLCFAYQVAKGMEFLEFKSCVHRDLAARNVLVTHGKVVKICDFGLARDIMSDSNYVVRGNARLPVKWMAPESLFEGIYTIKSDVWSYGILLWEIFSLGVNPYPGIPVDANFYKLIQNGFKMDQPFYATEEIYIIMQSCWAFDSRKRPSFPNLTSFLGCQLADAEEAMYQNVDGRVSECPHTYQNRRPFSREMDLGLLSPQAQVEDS
# PROTOCOL_DESCRIPTION: flow cytometry, hybridoma supernatant on REH cells; same table: unstained 1292, secondary Ab alone 6905 (0.78%), isotype 13307 (12%)
Provide the reported MFI (IgC FITC) of each item.
Reply with just the number.

Qu. Given the binder MHC1692-1-23DA (antibody, V domains shown, Mouse hybridoma monoclonal antibody (detected with anti-mouse IgG); also called Ab1-23DA) VH: QVTLKESGPGILQPSQTLSLTCSFSGFSLSTSTMGVGWIRQPSGKGLEWLLHILWNDSKYYNPALKSRLTISKDTYNKQVFLKIANVDTADTATYYCARIVYYSTYVGYFDVWGAGTTVTVSS VL: DIQMTQSPSSLSASLGERVSLTCRASQEISGYLSWLQQKPDGTIKRLIYAASTLHSGVPKRFSGSRSGSDYSLTISRLESEDVADYYCLQYASYPFTFGSGTKLEIR , what is its reported MFI (IgC FITC)?
Ans. 13300

Qu. Given the binder MHC1694-1-18BA (antibody, V domains shown, Mouse hybridoma monoclonal antibody; also called Ab1-18New) VH: QVTLKESGPGILQPSQTLSLTCSFSGFSLSTSTMGVGWIRQPSGKGLEWLLHILWNDSKYYNPALKSRLTISKDTYNKQVFLKIANVDTADTATYYCARIVYYSTYVGYFDVWGAGTTVTVSS VL: DIQMTQSPSSLSASLGERVSLTCRASQEISGYLSWLQQKPDGTIKRLIYAASTLHSGVPKRFSGSRSGSDYSLTISRLESEDVADYYCLQYASYPFTFGSGTKLEIR , what is its reported MFI (IgC FITC)?
Ans. 14700

Qu. Given the binder MHC1695-3-30A (antibody, V domains shown, Mouse hybridoma monoclonal antibody) VH: QVTLKESGPGILQPSQTLSLTCSFSGFSLSTSHMGVGWIRQPSGKGLEWLLHILWNDSVYYNPALKSRLTISKDTYNKQVFLKIANVDTADTATYYCARIVYYGISYVGYFDVWGAGTTVTVSS VL: DIQMTQSPSSLSASLGERVSLTCRASQEISGYLSWLQQKPDGTIKRLIYAASTLNSGVPRRFSGSRSGSDYSLTISSLESEDFADYYCLQYASYPFTFGSGTKLEIK , what is its reported MFI (IgC FITC)?
Ans. 13000
